Listed here: items and their measured protein stability index.
B1: SNAP91 (parent)
chain: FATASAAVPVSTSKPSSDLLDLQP

# Variants of: B1
# ASSAY EXPLANATION: protein stability index of a GFP-peptide fusion (GPS, HEK-293T) (PSI 1-6); higher = more stable;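 also: lentivirally expressed fusions sorted by FACS into six bins by GFP to DsRed ratio, PSI derived from sequencing read proportions per bin multiplied by bin number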
# CONDITION NOTES: c terminus: a fixed tail appended
Form rule: numeric answer, no unit written next to it.

S16V | 3.6
Q23L | 3.38
D21Y | 2.67
S17C | 3.41
L19G | 4.12
S13R | 3.94
S13A | 3.82
L22M | 3.87
S5W | 3.73
S5A | 3.46

Task: Please give the measured protein stability index for this variant: `D18V`
Output: 3.17

Task: Given the variant `S5Q` , what is its reported protein stability index?
Output: 3.38

Task: Fill in: protein stability index of `P24C` is ___
Output: 3.56

Task: I would be grateful if you could share the reported protein stability index for `D21Q` .
Output: 3.57

Task: Dear colleague, I am looking for the recorded protein stability index of the following variant: `P24K`
Output: 4.34

Task: // query protein stability index value for entry `D21G`
Output: 4.09

Task: Sample `A7G` — what was its protein stability index?
Output: 3.72

Task: Item `P15Y` has what recorded protein stability index?
Output: 2.99

Task: Which protein stability index value belongs to `A6F` ?
Output: 2.31

Task: Would you mind telling me what protein stability index value was observed for `L19I` ?
Output: 3.95

Task: Entry `V8H` : reported protein stability index = ?
Output: 4.27

Task: Return reported protein stability index; argument: `V8F`
Output: 3.11
